Every entry's value here was drawn from paper PMC10786891.

Would you kindly list pKd for each of these binders?
- Study system: T1, EsCas13d, nuclease-dead (Eubacterium siraeum, UniProt B0MS50, R295A;H300A;R849A;H854A)
- T1 sequence: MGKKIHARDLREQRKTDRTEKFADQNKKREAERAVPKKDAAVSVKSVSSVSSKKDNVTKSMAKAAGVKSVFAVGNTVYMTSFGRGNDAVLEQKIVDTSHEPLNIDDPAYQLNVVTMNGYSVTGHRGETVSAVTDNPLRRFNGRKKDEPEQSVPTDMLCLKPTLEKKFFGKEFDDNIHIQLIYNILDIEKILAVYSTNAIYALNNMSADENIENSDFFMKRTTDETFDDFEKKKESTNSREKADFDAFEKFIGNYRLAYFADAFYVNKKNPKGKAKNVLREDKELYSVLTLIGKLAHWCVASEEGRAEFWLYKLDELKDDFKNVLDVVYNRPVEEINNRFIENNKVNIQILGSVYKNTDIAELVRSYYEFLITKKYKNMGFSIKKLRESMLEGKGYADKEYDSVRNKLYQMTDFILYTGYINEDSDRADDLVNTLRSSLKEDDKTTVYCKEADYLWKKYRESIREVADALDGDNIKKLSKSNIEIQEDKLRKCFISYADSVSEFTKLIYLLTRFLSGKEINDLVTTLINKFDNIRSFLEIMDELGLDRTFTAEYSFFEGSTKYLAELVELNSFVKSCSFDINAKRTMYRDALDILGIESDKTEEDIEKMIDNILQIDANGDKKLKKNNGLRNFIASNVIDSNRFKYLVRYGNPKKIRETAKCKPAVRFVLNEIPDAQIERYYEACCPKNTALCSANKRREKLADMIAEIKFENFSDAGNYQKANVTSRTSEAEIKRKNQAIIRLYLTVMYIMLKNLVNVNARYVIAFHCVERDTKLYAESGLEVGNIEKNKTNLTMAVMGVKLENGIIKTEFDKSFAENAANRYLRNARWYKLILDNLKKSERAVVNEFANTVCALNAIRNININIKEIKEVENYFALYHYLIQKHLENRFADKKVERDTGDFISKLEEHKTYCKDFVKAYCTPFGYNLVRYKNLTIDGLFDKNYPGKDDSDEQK
- Assay comment: crRNA (strand 1, pre-loaded); Mg2+; 40 mM Tris-HCl pH 7.5, 150 mM NaCl, 6 mM MgCl2, 1 mM DTT, 0.1% Tween-20, 0.2 mg/ml BSA; 25 C; 10 min per concentration, then washed
- Condition context: tags: His6-TwinStrep-SUMO cleaved; N-terminal SNAP kept (SNAP-Surface 488); label: 3' end held by stalled T7 RNA polymerase
Lab note: report pKd as minus log10 of the concentration in molar units, number only.

// query Can you share its pKd? I mean this binder: target 3 U2A,C6U (mixed) RNA 1: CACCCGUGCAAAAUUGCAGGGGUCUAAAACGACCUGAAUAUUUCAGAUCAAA RNA 2: GGGAAUGGAUCCACAUCUACGAAUUCGUUUUUGAUCUGAAAUAUUUAGGACUGCAGAUCGGAAGAGCACACGU
// result 8.34

// query Can you share its pKd? I mean this binder: target 3 insA 3' of 14,insA 3' of 6 (mixed) RNA 1: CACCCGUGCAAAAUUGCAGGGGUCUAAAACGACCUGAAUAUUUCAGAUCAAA RNA 2: GGGAAUGGAUCCACAUCUACGAAUUCGUUUUUGAUCUGAAAAUAUUCAAGGUCUGCAGAUCGGAAGAGCACACGU
// result 7.04
